# target_system: ROCK2 (Homo sapiens (Human));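 note: rho kinase enzyme reaction halted with EDTA, phospho- and non-phospho peptide separated for read-out, kinase activity inhibition derived across a dose-response series, DMSO under 2%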
# Sequence (O75116 whole entry, species assumed): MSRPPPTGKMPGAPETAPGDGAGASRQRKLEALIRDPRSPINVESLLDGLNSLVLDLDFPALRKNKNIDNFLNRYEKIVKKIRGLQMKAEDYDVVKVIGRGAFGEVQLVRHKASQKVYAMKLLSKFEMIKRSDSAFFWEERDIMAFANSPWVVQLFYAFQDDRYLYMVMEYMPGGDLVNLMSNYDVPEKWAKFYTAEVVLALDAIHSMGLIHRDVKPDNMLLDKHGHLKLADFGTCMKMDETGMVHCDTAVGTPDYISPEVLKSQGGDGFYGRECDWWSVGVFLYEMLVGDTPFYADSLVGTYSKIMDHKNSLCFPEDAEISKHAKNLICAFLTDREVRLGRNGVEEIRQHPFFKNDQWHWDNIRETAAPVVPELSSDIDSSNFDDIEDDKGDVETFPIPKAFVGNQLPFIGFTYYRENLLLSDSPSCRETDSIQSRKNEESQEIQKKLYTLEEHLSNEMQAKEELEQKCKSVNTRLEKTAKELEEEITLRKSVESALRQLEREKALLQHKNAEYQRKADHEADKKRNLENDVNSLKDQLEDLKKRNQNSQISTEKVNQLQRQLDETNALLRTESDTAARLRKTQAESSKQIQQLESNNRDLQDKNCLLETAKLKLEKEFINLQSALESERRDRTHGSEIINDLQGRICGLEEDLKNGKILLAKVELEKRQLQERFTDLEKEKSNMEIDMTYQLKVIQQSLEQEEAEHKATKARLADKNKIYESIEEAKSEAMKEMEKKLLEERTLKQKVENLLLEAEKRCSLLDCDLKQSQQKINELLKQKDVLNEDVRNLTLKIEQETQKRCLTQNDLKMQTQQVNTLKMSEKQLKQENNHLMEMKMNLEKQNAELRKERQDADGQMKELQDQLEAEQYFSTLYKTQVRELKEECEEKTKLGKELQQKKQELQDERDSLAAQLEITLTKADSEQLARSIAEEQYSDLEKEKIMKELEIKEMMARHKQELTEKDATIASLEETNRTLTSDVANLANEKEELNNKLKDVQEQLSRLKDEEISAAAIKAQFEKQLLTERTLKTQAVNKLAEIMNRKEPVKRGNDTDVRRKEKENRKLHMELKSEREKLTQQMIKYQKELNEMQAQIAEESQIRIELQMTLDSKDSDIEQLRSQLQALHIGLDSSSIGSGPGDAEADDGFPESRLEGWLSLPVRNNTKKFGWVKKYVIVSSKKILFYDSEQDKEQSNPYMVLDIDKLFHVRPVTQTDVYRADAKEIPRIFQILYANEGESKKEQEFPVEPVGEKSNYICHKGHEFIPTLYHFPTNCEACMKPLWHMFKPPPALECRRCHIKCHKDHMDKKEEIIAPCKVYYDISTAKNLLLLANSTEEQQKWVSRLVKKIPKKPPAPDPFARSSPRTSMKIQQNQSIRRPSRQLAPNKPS
# test_name: biochemical
assay_readout: IC50

| molecule | measurement |
| --- | --- |
| COc1nc(N2CCC(Nc3cccc(OCC4CC4)c3)C2=O)ccc1-c1cn[nH]c1 (racemic) [Example 205] | < 10 nM |
| COc1cc(NC2CCN(c3ccc(-c4cn[nH]c4)c(C)c3)C2=O)cc(OC)c1 (single isomer, unassigned) | 100 to 2200 nM |
| COc1cccc(NC2CCN(c3cc(F)c(-c4cn[nH]c4)c(F)c3)C2=O)c1 (single isomer, unassigned) | < 10 nM |
| COc1cccc(NC2CCN(c3cnc(-c4cn[nH]c4)c(OC)n3)C2=O)c1 (stereo not shown) | < 10 nM |
| COc1cccc(NC2CCN(c3cc(C)c(-c4cn[nH]c4)cn3)C2=O)c1 (racemic) | 100 to 2200 nM |
| COc1c(F)cccc1NC1CCN(c2ccc(-c3cn[nH]c3)cc2)C1=O (single isomer, unassigned) [Example 15] | < 10 nM |
| COc1cc(NC2CCN(c3ccc(-c4cn[nH]c4)c(C)n3)C2=O)ccc1F (single isomer, unassigned) | 10 to 100 nM |
| COc1cccc(NC2CCN(c3ccc(-c4cn[nH]c4)c(Cl)c3)C2=O)c1 (single isomer, unassigned) [Example 165] | 10 to 100 nM |
| COc1nc(N2CCC(N3CCCC(C)(C)C3)C2=O)ccc1-c1cn[nH]c1 (racemic) | 100 to 2200 nM |
| COc1cc(NC2CCN(c3ccc(-c4cn[nH]c4)c(OC)n3)C2=O)ccc1F (single isomer, unassigned) | < 10 nM |
| COc1cc(NC2CCN(c3ccc(-c4cn[nH]c4)c(C(F)(F)F)c3)C2=O)ccc1F (single isomer, unassigned) | 100 to 2200 nM |
| COc1c(F)cccc1NC1CCN(c2ccc(-c3cn[nH]c3)cn2)C1=O (single isomer, unassigned) [Example 89] | < 10 nM |
| COc1ccc(NC2CCN(c3ccc(-c4cn[nH]c4)c(OC)c3)C2=O)c(F)c1 (single isomer, unassigned) | 100 to 2200 nM |
